Attribute: CC50
Tested on: SR
procedureSummary: Cytotoxicity against human SR cells assessed as cell growth inhibition by measuring lethal concentration by SRB assay
Format: functional
testSettings: read-out: LC50 (the source's name)

# return recorded CC50 for input CCCCOc1ccc(/C=N/Nc2cc(C)nc3ccc(Br)cc23)cc1
> 100 µM

# return recorded CC50 for input CCCCOc1ccc(/C=N/Nc2cc(C)nc3ccc(Cl)cc23)cc1
> 100 µM

Consider the additional compound presented here.
# return recorded CC50 for input CCCCCCOc1ccc(/C=N/Nc2cc(C)nc3ccc(Br)cc23)cc1
> 100 µM

Data provenance is ChEMBL document CHEMBL5550101.
